Quick reference for Response among some binders
Biological target: T1, biotinylated recombinant human IL-12Rβ2 (human, UniProt Q99665 24-622, random biotinylated)
T1 construct: Recombinant protein produced in-house; also called hIL-12RB2; human IL-12RB2
T1 sequence: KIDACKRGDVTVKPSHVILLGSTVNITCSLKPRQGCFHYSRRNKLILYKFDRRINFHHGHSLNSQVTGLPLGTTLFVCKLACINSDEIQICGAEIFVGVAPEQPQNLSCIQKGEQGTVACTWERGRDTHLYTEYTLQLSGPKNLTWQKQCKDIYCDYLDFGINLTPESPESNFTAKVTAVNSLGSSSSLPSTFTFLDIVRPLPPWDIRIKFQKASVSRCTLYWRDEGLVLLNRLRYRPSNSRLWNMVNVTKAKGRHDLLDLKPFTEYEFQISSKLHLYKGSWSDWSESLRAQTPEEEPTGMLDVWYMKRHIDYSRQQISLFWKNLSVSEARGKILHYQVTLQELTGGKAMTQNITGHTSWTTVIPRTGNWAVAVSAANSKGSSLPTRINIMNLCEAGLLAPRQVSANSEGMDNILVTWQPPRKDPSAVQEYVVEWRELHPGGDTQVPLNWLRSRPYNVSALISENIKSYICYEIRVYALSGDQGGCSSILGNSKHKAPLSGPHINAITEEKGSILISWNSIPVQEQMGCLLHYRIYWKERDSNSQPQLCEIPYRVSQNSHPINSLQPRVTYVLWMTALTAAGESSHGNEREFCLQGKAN
Assay: BLI, P.E., off-rate ranking
Reply: number alone, nothing else.

anti-IL-12Rβ2 VHH clone 3CRHS142 (clone ID 20434) (VHH, not shown: small tags and cut ends, periplasmic extract) VHH: QVQLQESGGGLVQAGGSLRLSCVSSQTLVGIEAMGWYRQAPGKQRELVALITLNGGTFYADSVKGRFTISRDVAEHMLYLEMNSLNPEDTAVYFCVAGVESDNEEPTYWGQGTQVTVSS :: 0.205
anti-IL-12Rβ2 VHH clone 3CRHS100 (clone ID 20428) (VHH, not shown: small tags and cut ends, periplasmic extract) VHH: QVQLQESGGGLVQPGGSLRLSCTASGSIFSIYNMDWYRQAPGNQREWVASITPSGDPYYDDSAKGRFTISRDNAKMTVYLQMNSLKPEDTAVYYCKVPTEKGNYWGQGTQVTVSS :: 0.209
anti-IL-12Rβ2 VHH clone 3CAHS102 (clone ID 20399) (VHH, not shown: small tags and cut ends, periplasmic extract) VHH: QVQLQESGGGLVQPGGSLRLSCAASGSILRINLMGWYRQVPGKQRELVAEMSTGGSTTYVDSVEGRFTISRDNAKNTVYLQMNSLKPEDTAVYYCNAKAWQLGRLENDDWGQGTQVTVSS :: 0.323
anti-IL-12Rβ2 VHH clone 2CRHS4 (clone ID 20411) (VHH, not shown: small tags and cut ends, periplasmic extract) VHH: QVQLQESGGGLVQPGGSLRLSCVSSQTLVGIEAMGWYRQAPGKQRELVALITLNGGTFYADSVKGRFTISRDVAGHMLYLEMNSLNPEDTAVYFCVAGVESDNEEPTYWGQGTQVTVSS :: 0.279
anti-IL-12Rβ2 VHH clone 3CRHS163 (clone ID 20438) (VHH, not shown: small tags and cut ends, periplasmic extract) VHH: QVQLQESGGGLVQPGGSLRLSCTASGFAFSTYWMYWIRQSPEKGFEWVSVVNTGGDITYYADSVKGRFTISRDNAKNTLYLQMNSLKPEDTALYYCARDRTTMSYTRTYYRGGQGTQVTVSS :: 0.339

Request: Response for anti-IL-12Rβ2 VHH clone 3CAH32 (clone ID 20357) (VHH, not shown: small tags and cut ends, periplasmic extract) VHH: QVQLQESGGGLVQPGGSLRLSCAASGSILRINLMGWYRQVPGKQRELVAEMSTGGSTTYVDSVKGRFTISRDNAKNTVYLQMNSLKPEDTAVYYCNAKAWQLGRLENDDWGQGTQVTVSS ?
Response: 0.607

Request: Cool, now anti-IL-12Rβ2 VHH clone 3CRH64 (clone ID 20386) (VHH, not shown: small tags and cut ends, periplasmic extract) VHH: QVQLQESGGGLVQAGGSLRLSCTASGHTFSRYTTIGWFRQAPGKDREFVAAIRWSGDITDYADAVKGRFTISRDNVKNTVYLQTNSLNPEDTAVYYCARGYSEYGVLSRNRGLYAYWGQGTQVTVSS
Response: 0.726

Request: Cool, now anti-IL-12Rβ2 VHH clone 3CAHS52 (clone ID 20396) (VHH, not shown: small tags and cut ends, periplasmic extract) VHH: QVQLQESGGGSVQAGGSLRLSCAASGRTINAYIMGWFRQAPGKEREFVAAVSGSGGSTYYADSVKGRFTISRDNAKNTVNLQMDNLRSEDTDVYYCAATYESVYLQNPGQYDYWGQGTQVTVSS
Response: 0.508

Request: Cool, now anti-IL-12Rβ2 VHH clone 3CRHS51 (clone ID 20421) (VHH, not shown: small tags and cut ends, periplasmic extract) VHH: QVQLQESGGGLVQPGGSLRLSCAASGFTFSTYAMSWVRQAPGKGLEWVSAVNSGGLSTDYADSVEGRFTISRDDAKNMLFLQMNRLKPEDTARYYCAKYEDCSDYVCDRAGYWGQGTQVTVSS
Response: 0.327

Request: Cool, now anti-IL-12Rβ2 VHH clone 3CAHS170 (clone ID 20406) (VHH, not shown: small tags and cut ends, periplasmic extract) VHH: QVQLQESGGGLVQAGGSLRLSCVASGRTFSSYAMGWFRQGPGKEREFVAAISWSGVSIYYADSVKGRFTISRDNAKNTVYLQMNSLEPEDTAVYYCAGTEGAYTVAGGSTFGYDMDYWGKGTQVTVSS
Response: 0.515

Request: Cool, now anti-IL-12Rβ2 VHH clone 3CRH67 (clone ID 20387) (VHH, not shown: small tags and cut ends, periplasmic extract) VHH: QVQLQESGGGLVQAGGSLVLSCAASGSAALIFLMSWYRQAPGKQRELVAEVSRYGSTTYADSVEGRFTISRDNAKNIVDLQMNSLKPEDTAAYYCKADQYYGDSLRSSWGRGTQVTVSS
Response: 0.617

Request: Cool, now anti-IL-12Rβ2 VHH clone 3CRHS2 (clone ID 20413) (VHH, not shown: small tags and cut ends, periplasmic extract) VHH: QVQLQESGGGLVQLGGSLTLSCAASGSAALIFLMSWYRQAPGKQRELVAEVSRYGSTTYADSVEGRFTISRDNAKNIVDLQMNSLKPEDTAVYYCKADQYYGDSLRSSWGRGTQVTVSS
Response: 0.5

Request: Cool, now anti-IL-12Rβ2 VHH clone 3CAH48 (clone ID 20360) (VHH, not shown: small tags and cut ends, periplasmic extract) VHH: QVQLQESGGGLVQAGGSLRLSCAASGRTFSSYAMGWFRQGPGKEREFVAAISWSGVSTYYADSVKGRFTISRDNAKNTVYLQMNSLRPEDTAVYYCAATEGAYTVAGGSTFGYDMDYWGKGTQVTVSS
Response: 0.759

Request: Cool, now anti-IL-12Rβ2 VHH clone 3CRH25 (clone ID 20378) (VHH, not shown: small tags and cut ends, periplasmic extract) VHH: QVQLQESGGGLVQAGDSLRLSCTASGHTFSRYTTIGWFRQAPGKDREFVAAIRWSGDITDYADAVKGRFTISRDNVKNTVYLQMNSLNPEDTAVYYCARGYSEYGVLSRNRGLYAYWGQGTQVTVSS
Response: 0.523

Request: Cool, now anti-IL-12Rβ2 VHH clone 3CRH43 (clone ID 20382) (VHH, not shown: small tags and cut ends, periplasmic extract) VHH: QVQLQESGGGSVQPGGSLRLSCAASGFTFSTSGMHWFRQAPGKGLEWVSSIGIIVDSSYYASSVKGRFTISRDNAKNIVYLQMNSLKSEDTAVYYCSKDPTGSSRGQGTQVTVSS
Response: 0.296
